Ref: the RNAGym collection of RNA variant scans (doi:10.7554/elife.80360)

B1: Hairpin Ribozyme (parent)
chain: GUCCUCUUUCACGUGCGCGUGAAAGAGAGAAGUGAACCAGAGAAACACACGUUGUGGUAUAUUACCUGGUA

variants of: B1; test: self-cleavage, relative activity (ratio to wild type); higher = more cleavage; co-transcriptional
Here, each record is paired with measured self-cleavage data.

# example entries with known answers
• GUCCUCUCUCACGUGCGCGUGAAAGAGAGAAGUGAACCAGAGAAACACACGUUGUGGUCUAUUACCUGGUA [U8C A59C] = 0.183
• GUCCUCUUUCACGUGCGCGUGAAAGAGAGGAGUGAACCAGAGGAACACACGUUGUGGUAUAUUACCUGGUA [A30G A43G] = 0.0977
• GUCCUCUUUCACGUGCGCGUGAAAUAGAGAAGUGAUCCAGAGAAACACACGUUGUGGUAUAUUACCUGGUA [G25U A36U] = 0.4

Lookup: Given the variant GUCCUCUUUCACGUGCGCGUGAAAGAGAGAAGUGAACCAGAGAAACACACGUUGUGAUAUAUUACCAGGUA [G57A U67A] , what is its reported self-cleavage?
Found: 0.2

Lookup: Given the variant GUCCUCUUUCACGUGCGCGUGAAAGAGAGAAGUGCACCAGAGAAACAAACGUUGUGGUAUAUUACCUGGUA [A35C C48A] , what is its reported self-cleavage?
Found: 0.103
